System: SF-539
Test: Growth inhibition of human SF539 cells after 48 hrs by SRB assay
Type: functional
Conditions: SF-539, 48 h
attributeMeasured: GI50 (µM)
Value expressed in µM; do not type the unit.

Examples with their reported GI50 follow.
COc1ccc(/C=C\c2cc(OC)c(OC)c(OC)c2)cc1OCC(=O)Nc1nc2ccc(F)cc2s1 :: 4.51
COc1ccc(/C=C\c2cc(OC)c(OC)c(OC)c2)cc1OCC(=O)Nc1nc2ccccc2s1 :: 0.045

Now look at this entry.
Give GI50 for this entry on SF-539: COc1ccc(/C=C\c2cc(OC)c(OC)c(OC)c2)cc1OCC(=O)Nc1nc2ccc(C(F)(F)F)cc2s1
2.66

----------
System: NCI-H460
Experiment: Growth inhibition of human NCI-H460 cells after 48 hrs by SRB assay
Format: functional
Details: NCI-H460, 48 h
Binary label based on GI50 with cut-off 3 µM: below gives yes (1), not below gives no (0).

Example entries and their recorded answers appear below.
COc1ccc(/C=C\c2cc(OC)c(OC)c(OC)c2)cc1OCC(=O)Nc1nc2ccccc2s1 :: yes (1)
COc1ccc2nc(NC(=O)COc3cc(/C=C\c4cc(OC)c(OC)c(OC)c4)ccc3OC)sc2c1 :: no (0)
COc1ccc(/C=C\c2cc(OC)c(OC)c(OC)c2)cc1OCC(=O)Nc1nc2ccc(C(F)(F)F)cc2s1 :: no (0)
COc1ccc(/C=C\c2cc(OC)c(OC)c(OC)c2)cc1O :: yes (1)
COc1ccc(/C=C\c2cc(OC)c(OC)c(OC)c2)cc1OCC(=O)Nc1nc2ccc(F)cc2s1 :: no (0)
COc1ccc(/C=C\c2cc(OC)c(OC)c(OC)c2)cc1OCC(=O)Nc1ccc2nc(C)sc2c1 :: no (0)

Moving on to the next compound.
Identify whether the compound COc1ccc(/C=C\c2cc(OC)c(OC)c(OC)c2)cc1OCC(=O)Nc1nc2ccc(OC(F)(F)F)cc2s1 records GI50 below 3 µM.
no (0)

----------
Tested on: IGROV-1
Assay: Growth inhibition of human IGROV1 cells after 48 hrs by SRB assay
Format: functional
Settings: IGROV-1, 48 h
attributeMeasured: GI50 (µM)
# number only, unit µM dropped from output

# count of solved cases: 3
COc1ccc(/C=C\c2cc(OC)c(OC)c(OC)c2)cc1OCC(=O)Nc1nc2ccc(OC(F)(F)F)cc2s1 :: 5.64
COc1ccc(/C=C\c2cc(OC)c(OC)c(OC)c2)cc1OCC(=O)Nc1nc2ccccc2s1 :: 0.21
COc1ccc(/C=C\c2cc(OC)c(OC)c(OC)c2)cc1OCC(=O)Nc1ccc2nc(C)sc2c1 :: 3.72

Now consider the entry below.
Report its GI50 with IGROV-1 as the test system: COc1ccc2nc(NC(=O)COc3cc(/C=C\c4cc(OC)c(OC)c(OC)c4)ccc3OC)sc2c1
7

----------
Tested on: MCF7
Assay: Growth inhibition of human MCF7 cells after 48 hrs by SRB assay
Format: functional
Settings: MCF7, 48 h
Threshold check on GI50: strictly below 700 nM is 1.0; on or above 700 nM is 0.0.

COc1ccc(/C=C\c2cc(OC)c(OC)c(OC)c2)cc1OCC(=O)Nc1nc2ccc(OC(F)(F)F)cc2s1 :: 0.0

Given COc1ccc(/C=C\c2cc(OC)c(OC)c(OC)c2)cc1OCC(=O)Nc1nc2ccccc2s1 , is recorded GI50 strictly lower than 700 nM?
1.0

Is it true that GI50 reported for COc1ccc(/C=C\c2cc(OC)c(OC)c(OC)c2)cc1O is less than 700 nM?
1.0

GI50 strictly < 700 nM for this compound? COc1ccc(/C=C\c2cc(OC)c(OC)c(OC)c2)cc1OCC(=O)Nc1ccc2nc(C)sc2c1
0.0

Origin of measurements: ChEMBL document CHEMBL2086239
